System: CEM cells
Experiment: Toxicity to CEM cells
Assay type: cell-based, human
Settings: Table 6; mean of two or more repeat experiments
I'd be grateful if you could share measured CC50 for these entries.
Numbers only, in µM.

Record excerpt, results attached:
COCCOCCO[PH](=O)OCC1C=CC(n2cc(C)c(=O)[nH]c2=O)O1 (stereo not drawn) [Compound 787]: 144
Cc1cn(C2C=CC(COP(=O)(Oc3ccccc3)N3CCCC3C(=O)OCc3ccccc3)O2)c(=O)[nH]c1=O (stereo not drawn) [Compound 933]: 92
CCCCCCNP(=O)(OCC1C=CC(n2cc(C)c(=O)[nH]c2=O)O1)Oc1ccccc1 (stereo not drawn) [Compound 859]: 145
CCCCO[PH](=O)OCC1C=CC(n2cc(C)c(=O)[nH]c2=O)O1 (stereo not drawn) [Compound 790]: 177
COC(=O)C(C)NP(=O)(OC[C@@H]1C=C[C@H](n2cc(C)c(=O)[nH]c2=O)O1)Oc1cc(Cl)cc(Cl)c1 (stereo partly drawn) [Compound 546]: 26.9
COC(=O)CC(NP(=O)(OCC1C=CC(n2cc(C)c(=O)[nH]c2=O)O1)Oc1ccccc1)C(=O)OC (stereo not drawn) [Compound 1078]: 209
COC(=O)C(Cc1ccccc1)NP(=O)(OC[C@@H]1C=C[C@H](n2cc(C)c(=O)[nH]c2=O)O1)Oc1ccccc1 (stereo partly drawn) [Compound 863]: 216
CCCCCCCCNP(=O)(OCC1C=CC(n2cc(C)c(=O)[nH]c2=O)O1)Oc1ccccc1 (stereo not drawn) [Compound 829]: 23
CCCCCCCCCCO[PH](=O)OCC1C=CC(n2cc(C)c(=O)[nH]c2=O)O1 (stereo not drawn) [Compound 789]: 64
COC(=O)C1CCCN1P(=O)(OCC1C=CC(n2cc(C)c(=O)[nH]c2=O)O1)Oc1ccccc1 (stereo not drawn) [Compound 879]: 42.5

# return CC50 for each item in the list
1. Cc1cn(C2C=CC(COP(=O)(NC(C)C(=O)OCc3ccccc3)Oc3ccc(Br)cc3Br)O2)c(=O)[nH]c1=O (stereo not drawn) [Compound 868]
2. Cc1cn([C@H]2C=C[C@@H](COP(=O)(NC(Cc3ccccc3)C(=O)OC(C)(C)C)Oc3ccccc3)O2)c(=O)[nH]c1=O (stereo partly drawn) [Compound 878]
3. Cc1cn(C2C=CC(COP(=O)(NC(Cc3ccccc3)C(=O)OCc3ccccc3)Oc3ccccc3)O2)c(=O)[nH]c1=O (stereo not drawn) [Compound 877]
4. CCOC(=O)C(C)NP(=O)(OCC1C=CC(n2cc(C)c(=O)[nH]c2=O)O1)Oc1ccccc1 (stereo not drawn) [Compound 951]
5. CCCCCCCCCCCCNP(=O)(OCC1C=CC(n2cc(C)c(=O)[nH]c2=O)O1)Oc1ccccc1 (stereo not drawn) [Compound 828]

Resp:
1. 50
2. 80
3. 44
4. 55
5. 14

---

Test system: CEM cells
Experiment: Toxicity to CEM cells
Type: cell-based, human
Conditions: CEM cells
I'd be grateful if you could share measured CC50 for these entries.

# return CC50 for each item in the list
1. CCCCCCCCn1c(=O)c(C)cn(C2CC(N=[N+]=[N-])C(COP(=O)(NC(C)C(=O)OC)Oc3ccccc3)O2)c1=O (stereo not shown)
2. COC(=O)C(C)NP(=O)(OCC1OC(n2cc(C)c(=O)[nH]c2=O)CC1N=[N+]=[N-])Oc1ccc(Br)cc1Br (stereo not shown)
3. COC(=O)C(Cc1ccccc1)NP(=O)(OCC1OC(n2cc(C)c(=O)[nH]c2=O)CC1N=[N+]=[N-])Oc1ccccc1 (stereo not shown)
4. Cc1cn(C2CC(N=[N+]=[N-])C(COP(=O)(OCCC#N)Oc3ccccc3)O2)c(=O)[nH]c1=O (stereo not shown)
5. COC(=O)C(C)NP(=O)(OC)OCC1OC(n2cc(C)c(=O)[nH]c2=O)CC1N=[N+]=[N-] (stereo not shown)
6. CCCCCCOP(=O)(O)OCC1OC(n2cc(C)c(=O)[nH]c2=O)CC1N=[N+]=[N-] (stereo not shown)
7. COC(=O)C(C)NP(=O)(OCC1OC(n2cc(C)c(=O)[nH]c2=O)CC1N=[N+]=[N-])Oc1c(F)c(F)c(F)c(F)c1F (stereo not shown)

Resp:
["15 µM", "55 µM", "115 µM", "> 250 µM", "> 250 µM", "> 250 µM", "106 µM"]
